System: KB-3-1
procedure.summary: Cytotoxic Profiling of Annotated Libraries Using Quantitative High-Throughput Screening (AID 1296008); note: % is set by controls: 0 for no effect and ±100 for the full control effect
protocol.conditions: Five cell lines viability, CellTiter-Glo ATP luminescence, 48-72 h; stronger effect = lower value
Results filed as inconclusive are left out.
attribute.measured: max response (%)
Form entry: value (%) — number only.

Problem: For the compound COc1ccc([C@@]2(O)c3c(ccc4c3OC(C)(CCC=C(C)C)C=C4)NC(=O)[C@@H]2OC)cc1 (some centres undefined) , report max response.
Result: 4.57

Problem: For the compound Cc1cc(C(N)=O)ccc1-n1c(CCC(=O)O)ccc1-c1ccc(-n2ccnc2)cc1 , report max response.
Result: 7.2

Problem: For the compound O=C(O)CC(=O)OC[C@H]1O[C@@H](Oc2ccc3c(c2)OC[C@H]2c4cc5c(cc4O[C@@H]32)OCO5)[C@H](O)[C@@H](O)[C@@H]1O , report max response.
Result: -2.44

Problem: For the compound COC(=O)c1c(C)cc(OC(=O)c2c(C)cc(OC)cc2OC)cc1O[C@@H]1O[C@H](CO)[C@@H](O)[C@H](O)[C@H]1O , report max response.
Result: -1.14

Data origin, for the record: PubChem BioAssay (NCATS)
